Target: chimeric CD1a pool B protein [human CD1a lipid binding domain, mouse CD1d Ig domain] (human; mouse, UniProt P06126 18-201; P11609 205-297, limits assumed)
Sequence (P06126 other isoform, or with tags, fused parts or gaps mutant limits assumed): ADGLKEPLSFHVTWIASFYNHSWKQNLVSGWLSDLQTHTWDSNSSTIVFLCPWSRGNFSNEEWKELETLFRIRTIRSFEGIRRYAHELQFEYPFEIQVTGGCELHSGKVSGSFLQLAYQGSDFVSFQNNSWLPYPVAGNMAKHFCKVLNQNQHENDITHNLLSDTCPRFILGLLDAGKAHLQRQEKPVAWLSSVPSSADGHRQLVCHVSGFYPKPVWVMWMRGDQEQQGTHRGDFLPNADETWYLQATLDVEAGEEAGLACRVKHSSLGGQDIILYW
Assay: ELISA, 0.316 µg/ml antibody
Overview of recorded Optical Density (OD) for various binders
State the answer as a number, implicitly in OD.

- 110 (VR12112) (antibody, V domains shown, also called OX110; antibody 110) VH: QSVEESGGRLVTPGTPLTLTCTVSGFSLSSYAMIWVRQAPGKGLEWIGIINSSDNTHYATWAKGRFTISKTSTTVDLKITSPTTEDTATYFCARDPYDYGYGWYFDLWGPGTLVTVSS VL: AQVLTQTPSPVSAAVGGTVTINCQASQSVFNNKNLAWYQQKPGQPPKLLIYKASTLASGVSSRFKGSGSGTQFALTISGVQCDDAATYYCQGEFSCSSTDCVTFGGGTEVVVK: 1.24
- 77A (VR11851) (antibody, V domains shown, also called OX77a; antibody 77a) VH: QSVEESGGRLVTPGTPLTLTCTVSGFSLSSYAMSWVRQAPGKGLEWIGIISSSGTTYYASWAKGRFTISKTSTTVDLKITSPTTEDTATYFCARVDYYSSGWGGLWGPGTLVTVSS VL: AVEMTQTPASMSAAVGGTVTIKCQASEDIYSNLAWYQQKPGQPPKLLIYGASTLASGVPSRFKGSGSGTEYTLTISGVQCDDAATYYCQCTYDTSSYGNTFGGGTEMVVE: 1.28
- 116 (VR12117) (antibody, V domains shown, also called OX116) VH: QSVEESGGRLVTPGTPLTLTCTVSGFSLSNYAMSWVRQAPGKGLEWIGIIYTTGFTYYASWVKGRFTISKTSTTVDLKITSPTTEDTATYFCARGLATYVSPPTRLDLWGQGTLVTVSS VL: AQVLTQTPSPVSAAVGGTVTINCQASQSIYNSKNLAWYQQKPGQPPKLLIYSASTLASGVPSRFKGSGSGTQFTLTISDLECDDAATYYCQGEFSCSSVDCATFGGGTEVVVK: 1.32

The record that follows has no Optical Density (OD) shown yet.
Query: Tell me its Optical Density (OD) given 111 (VR12113) (antibody, V domains shown, also called OX111) VH: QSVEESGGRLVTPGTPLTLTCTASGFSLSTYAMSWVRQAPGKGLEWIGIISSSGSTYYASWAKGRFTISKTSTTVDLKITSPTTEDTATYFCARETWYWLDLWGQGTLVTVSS VL: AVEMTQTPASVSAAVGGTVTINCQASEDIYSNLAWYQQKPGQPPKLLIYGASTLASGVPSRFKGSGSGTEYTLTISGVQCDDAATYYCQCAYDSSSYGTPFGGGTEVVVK as the entry.
Result: 1.32
